- assay-target: T1, canine FcRn (UniProtKB-E2ROL6 [FcRn] and UniProtKB-E2RN10 [canine beta-2-microglobulin]) (canine)
- T1 construct: Soluble analyte injected in SPR
- experiment: SPR Biacore 8K, pH 5.5, Fc captured on BSA via SASA tag, FcRn 100-800 nM
# koff annotations
assay-endpoint: koff (s⁻¹)

[[record]]
binder = "canine IgG.B Fc (CH2-CH3) variant L252Y (Fc fusion) APEMLGGPSVFIFPPKPKDTLYIARTPEVTCVVVDLDPEDPEVQISWFVDGKQMQTAKTQPREEQFNGTYRVVSVLPIGHQDWLKGKQFTCKVNNKALPSPIERTISKARGQAHQPSVYVLPPSREELSKNTVSLTCLIKDFFPPDIDVEWQSNGQQEPESKYRTTPPQLDEDGSYFLYSKLSVDKSRWQRGDTFICAVMHEALHNHYTQESLSHSPGK"
measured_result = 0.0476

[[record]]
binder = "canine IgG.B Fc (CH2-CH3) variant N434H (Fc fusion) APEMLGGPSVFIFPPKPKDTLLIARTPEVTCVVVDLDPEDPEVQISWFVDGKQMQTAKTQPREEQFNGTYRVVSVLPIGHQDWLKGKQFTCKVNNKALPSPIERTISKARGQAHQPSVYVLPPSREELSKNTVSLTCLIKDFFPPDIDVEWQSNGQQEPESKYRTTPPQLDEDGSYFLYSKLSVDKSRWQRGDTFICAVMHEALHHHYTQESLSHSPGK"
measured_result = 0.102


Source of measurements: patent US20200216536A1
